Subject of test: T1, PSMA Fab
T1 construct: Biotinylated and captured on neutravidin coated plates in the phage ELISA; also called Anti-PSMA Fab; 006 PSMA Fab
Assay summary: clonal phage ELISA on biotinylated PSMA Fab captured on neutravidin plates, anti-M13 HRP detection;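 note: crude clonal phage supernatants tested, before phage were added, wells were pretreated with PSMA antigen in blocking buffer or with blocking buffer only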
Could you please report measured Phage binding ELISA signal, Anti-PSMA Fab for the items listed next?
Response field accepts a number only; no unit should be typed.

Exercise: // Phage binding ELISA signal, Anti-PSMA Fab lookup, key: IIRHCVPMWMCQGF [Phage-2873]
Solution: 2.39

Exercise: // Phage binding ELISA signal, Anti-PSMA Fab lookup, key: IDILCRPLWMCNGM [Phage-2872]
Solution: 2.39

Exercise: // Phage binding ELISA signal, Anti-PSMA Fab lookup, key: SEFWCVPAWMCEGF [Phage-2870]
Solution: 2.4

Exercise: // Phage binding ELISA signal, Anti-PSMA Fab lookup, key: SMPRCVPVWMCEGF [Phage-2875]
Solution: 2.39
